This collection of values is drawn from paper PMC10891803.

For each entry below, report its pIC50 value.
System: HTB-54
Test: MTT cell viability assay, HTB-54
Type: cell-based, human
Details: Homo sapiens, HTB-54; MTT, 48 h, mean ± SD of three experiments; read-out: IC50 HTB-54 (Lung)
pIC50 here is simply -log10 of the concentration when that concentration is written in mol/L.

Query: If you can, please state the reported pIC50 value of `CC(=O)Oc1ccccc1C(=O)NC(=[Se])NC1CCCCC1` .
Reply: 4.53

Query: State the recorded pIC50 for this entry: `CC(C)NC(=[Se])NC(=O)c1cccs1`
Reply: 5.29

Query: State the recorded pIC50 for this entry: `CC(=O)Oc1ccccc1C(=O)[Se]C(=NC(C)C)NC(C)C`
Reply: 5.14

Query: Please look up its pIC50: `O=C(NC(=[Se])NC1CCCCC1)c1ccccc1`
Reply: 4.84

Query: Given the compound `CC(=O)Oc1ccccc1C(=O)[Se]C(=NC1CCCCC1)NC1CCCCC1` , what is its reported pIC50?
Reply: 5.08
